SUBJECT_OF_TEST: SARS-COV-2 RBD extracellular domain expressed with a C-terminal mouse IgG2a (SARS-CoV-2)
PROTOCOL_DETAILS: SPR Biacore, mAb captured via anti-hFc, 25 C
Record form. Attribute: kon. Fill in for each entry.

Field: example entries. Status: answers known.
mAb10982 (antibody, V domains shown) VH: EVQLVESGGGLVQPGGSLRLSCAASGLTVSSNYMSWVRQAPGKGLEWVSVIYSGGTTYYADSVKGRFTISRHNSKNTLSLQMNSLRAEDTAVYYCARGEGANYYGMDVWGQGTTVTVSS VL: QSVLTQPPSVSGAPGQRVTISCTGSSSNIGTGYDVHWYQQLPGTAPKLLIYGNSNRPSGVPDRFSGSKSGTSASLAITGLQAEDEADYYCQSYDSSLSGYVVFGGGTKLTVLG    910000 M⁻¹ s⁻¹
mAb10913 (antibody, V domains shown) VH: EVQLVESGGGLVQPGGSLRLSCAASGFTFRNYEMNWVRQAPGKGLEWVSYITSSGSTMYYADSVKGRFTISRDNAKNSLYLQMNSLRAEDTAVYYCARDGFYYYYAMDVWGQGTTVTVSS VL: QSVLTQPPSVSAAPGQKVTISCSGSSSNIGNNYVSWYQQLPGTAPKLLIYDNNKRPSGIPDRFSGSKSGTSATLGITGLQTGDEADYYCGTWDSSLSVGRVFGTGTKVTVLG    5e+06 M⁻¹ s⁻¹

Shifting focus to the binder that follows.
In plain terms, mAb10939 (antibody, V domains shown) VH: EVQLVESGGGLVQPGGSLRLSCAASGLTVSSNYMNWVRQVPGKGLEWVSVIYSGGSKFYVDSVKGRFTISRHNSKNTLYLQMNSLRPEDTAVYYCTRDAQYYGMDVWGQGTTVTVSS VL: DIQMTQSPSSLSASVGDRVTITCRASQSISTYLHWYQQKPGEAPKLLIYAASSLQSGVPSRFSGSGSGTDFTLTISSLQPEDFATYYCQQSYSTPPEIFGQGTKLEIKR has a documented kon of 722000 M⁻¹ s⁻¹
